# EXPERIMENTAL TARGET: MAGE-A1 Dextramer (human)
# METHOD SUMMARY: KD-SPR estimated from Dextramer staining MFI by the linear formula of Figure 6; not measured by SPR
Entries and their measured Kd follow.
Reply numerically in pM, unit not repeated.

[[record]]
binder = "A1A2-M01-623 (TCR, V domains shown) Valpha: GEDVEQSLFLSVREGDSSVINCTYTDSSQTYLYWYKQEPGAGLQLLTYIFIFQAMKQDQRLTVLLNKKDKHLSLRIADTQTGDSAIYFCAGSGGGTDKLIFGTGTRLQVFP Vbeta: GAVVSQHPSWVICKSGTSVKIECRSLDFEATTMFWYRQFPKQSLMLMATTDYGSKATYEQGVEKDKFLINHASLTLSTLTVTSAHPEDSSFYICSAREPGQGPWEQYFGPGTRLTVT"
unit_descriptor = "pM"
numeric_readout = 337

[[record]]
binder = "A1A2-M01-621 (TCR, V domains shown) Valpha: GEDVEQSLFLSVREGDSSVINCTYTDSEFTYLYWYKQEPGAGLQLLTYIFAFESMKQDQRLTVLLNKKDKHLSLRIADTQTGDSAIYFCAGSGGGTDKLIFGTGTRLQVFP Vbeta: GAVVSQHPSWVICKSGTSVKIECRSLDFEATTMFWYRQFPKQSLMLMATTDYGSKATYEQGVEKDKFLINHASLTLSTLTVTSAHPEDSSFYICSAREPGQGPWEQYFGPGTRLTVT"
unit_descriptor = "pM"
numeric_readout = 74.7


With those in mind, consider the next binder.
Provide Kd value for the following binder: A1A2-M01-624 (TCR, V domains shown) Valpha: GEDVEQSLFLSVREGDSSVINCTYQYGMSTYLYWYKQEPGAGLQLLTYIFSFMDMKQDQRLTVLLNKKDKHLSLRIADTQTGDSAIYFCAGSGGGTDKLIFGTGTRLQVFP Vbeta: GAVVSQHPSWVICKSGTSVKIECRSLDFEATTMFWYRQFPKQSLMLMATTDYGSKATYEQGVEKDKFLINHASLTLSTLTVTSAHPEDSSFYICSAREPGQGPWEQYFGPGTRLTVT
65.1
